Let's go through some recorded pEC50 values for primary human T-cells together.
Schema: pEC50 number; meaning minus log10 of the concentration expressed in molar units.

>>> val("CC(C)(C)c1nnc(-c2cc3c(cc2F)S(=O)(=O)C[C@H](N)C(=O)N3Cc2ccc(C(C)(C)C#N)cc2)o1 [Example 244]")
6.63
>>> val("N[C@H]1CS(=O)(=O)c2cc(F)c(-c3noc(N4CCOCC4)n3)cc2N(Cc2ccc(Cl)cc2)C1=O [Example 196]")
7.44
>>> val("CN(c1nnc(-c2ccc3c(c2)N(Cc2ccc(Cl)cc2)C(=O)[C@@H](N)CS3(=O)=O)o1)C1CC1 [Example 394]")
5.51
>>> val("N[C@H]1CS(=O)(=O)c2cc(F)c(-c3nnc(NCC(F)(F)F)o3)cc2N(Cc2ccc(Cl)cc2)C1=O [Example 487]")
5.07
>>> val("COC(=O)N1CC2CC(c3nnc(-c4cc5c(cc4F)S(=O)(=O)C[C@H](N)C(=O)N5Cc4ccc(Cl)cc4)o3)(C2)C1 [Example 184]")
6.96

Query block: // fetch pEC50 for CCc1nnc(-c2cc3c(cc2F)S(=O)(=O)C[C@H](N)C(=O)N3Cc2ccc(Cl)cc2)o1 [Example 72] ; system: primary human T-cells;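 also: cd3-stimulated proliferation read by CellTiter-Glo after 5 days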
Result block: 5.49

Query block: Send back primary human T-cells pEC50 of CC(C)(C)c1nnc(-c2ccc3c(c2)N(Cc2ccc(OC4CCCCC4)cc2)C(=O)[C@@H](N)CS3(=O)=O)o1 [Example 434] only.
Result block: 5.21
